- targetEntity: XPO1 C528 (O14980) (Homo sapiens, UniProt O14980)
- Sequence (O14980 whole entry): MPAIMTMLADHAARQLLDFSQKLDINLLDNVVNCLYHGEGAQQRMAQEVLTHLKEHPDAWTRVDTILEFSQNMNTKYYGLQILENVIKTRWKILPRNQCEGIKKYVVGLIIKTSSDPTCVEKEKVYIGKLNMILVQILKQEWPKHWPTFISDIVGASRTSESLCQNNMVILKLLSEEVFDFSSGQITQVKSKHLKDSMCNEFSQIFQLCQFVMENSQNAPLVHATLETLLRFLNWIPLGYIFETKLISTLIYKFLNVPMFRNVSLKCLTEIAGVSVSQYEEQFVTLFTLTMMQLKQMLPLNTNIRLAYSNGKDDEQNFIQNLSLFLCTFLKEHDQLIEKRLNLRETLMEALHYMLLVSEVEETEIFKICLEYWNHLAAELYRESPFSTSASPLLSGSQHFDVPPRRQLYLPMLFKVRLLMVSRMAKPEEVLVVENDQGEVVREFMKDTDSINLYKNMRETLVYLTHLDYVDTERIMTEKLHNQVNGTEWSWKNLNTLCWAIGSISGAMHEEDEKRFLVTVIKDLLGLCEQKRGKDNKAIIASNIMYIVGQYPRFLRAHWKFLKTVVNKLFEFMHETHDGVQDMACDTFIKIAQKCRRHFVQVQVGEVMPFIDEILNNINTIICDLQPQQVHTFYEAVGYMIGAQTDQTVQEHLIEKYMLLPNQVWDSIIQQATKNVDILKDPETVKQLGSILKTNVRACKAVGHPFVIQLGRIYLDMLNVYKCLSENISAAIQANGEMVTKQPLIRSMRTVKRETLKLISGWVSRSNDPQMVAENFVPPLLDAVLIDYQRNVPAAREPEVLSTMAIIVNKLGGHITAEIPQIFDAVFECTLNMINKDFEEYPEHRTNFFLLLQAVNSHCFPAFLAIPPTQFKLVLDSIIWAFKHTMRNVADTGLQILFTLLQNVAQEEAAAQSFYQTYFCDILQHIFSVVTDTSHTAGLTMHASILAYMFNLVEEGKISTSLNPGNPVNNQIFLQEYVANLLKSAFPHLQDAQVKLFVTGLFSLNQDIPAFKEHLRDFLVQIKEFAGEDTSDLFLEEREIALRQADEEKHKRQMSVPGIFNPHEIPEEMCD
- testDetails: Competitive isoTOP-ABPP, cell lysates
- Type: binding
- experimentalConditions: 500 μm in-vitro ramos
propertyName: isoTOP-ABPP ratio (reactivity profile), O14980_C528
I'd appreciate a reply containing only the number, no unit.

Example entries and their recorded answers appear below.
{"compound": "N#C/C(=C\\c1cc(C(F)(F)F)cc(C(F)(F)F)c1)C(N)=O [compound 23]", "targetEntity": "XPO1 C528 (O14980) (Homo sapiens, UniProt O14980)", "testValue": 2.9}
{"compound": "O=C(CCl)NC12CC3CC(CC(C3)C1)C2 [compound 21]", "targetEntity": "XPO1 C528 (O14980) (Homo sapiens, UniProt O14980)", "testValue": 0.8}
{"compound": "CC(Br)C(=O)Nc1cc(C(F)(F)F)cc(C(F)(F)F)c1 (stereo not shown) [compound 24]", "targetEntity": "XPO1 C528 (O14980) (Homo sapiens, UniProt O14980)", "testValue": 20.0}
{"compound": "O=C(CCl)N1CCC(C(O)(c2ccccc2)c2ccccc2)CC1 [compound 20]", "targetEntity": "XPO1 C528 (O14980) (Homo sapiens, UniProt O14980)", "testValue": 4.0}
{"compound": "C=CC(=O)N(Cc1cccnc1)c1ccc(Oc2ccccc2)c(C(F)(F)F)c1 [compound 15]", "targetEntity": "XPO1 C528 (O14980) (Homo sapiens, UniProt O14980)", "testValue": 1.0}
{"compound": "CC(C)CCOCCNC(=O)CCl [compound 27]", "targetEntity": "XPO1 C528 (O14980) (Homo sapiens, UniProt O14980)", "testValue": 0.8}

Consider the record given below.
Exercise: Dear colleague, I am looking for the recorded isoTOP-ABPP ratio (reactivity profile), O14980_C528 of the following compound: O=C(/C=C/c1ccccc1)Nc1cc(C(F)(F)F)cc(C(F)(F)F)c1 [compound 26]
Solution: 0.9
